assayed.system: Relaxin receptor 1 (Homo sapiens)
assay.comment: qHTS Assay for Agonists of the Relaxin Receptor RXFP1: RXFP1 Hit Validation; note: nearly all actives have a fitted effect of over 65% in size;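 for activation: cAMP rise lowers the TR-FRET signal in lysed cells with PDE4 inhibitor present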
settings: HEK293T-RXFP1 cAMP TR-FRET, 30 min; series mostly up to 115 µM
Records with an inconclusive call do not appear. The source made the active and inactive calls. Calls come from the whole dose curve; as a rule, active = well fitted activation curve with a large enough effect; inconclusive = small, poorly fitted or top-dose-only effect; inactive = no such curve, though single readings can be large or run the other way.
Possible outcomes: yes = active, no = inactive

compound	assigned.label
Cc1c(C(=O)NNc2cc(=O)n(C)c(=O)n2C)cccc1[N+](=O)[O-]	no
CCNc1nc(NCC)nc(N(C)/N=C/c2ccco2)n1	no
CC(C)n1c(CN2CCN(C(=O)c3ccco3)CC2)nc2c1c(=O)n(C)c(=O)n2C	no
Cc1cccc(NC(=O)c2ccccc2NC(=O)C2CCCCC2)c1C	no
CC1CCN(S(=O)(=O)c2ccc3nc(N4CCN(c5ccccc5)CC4)ccc3c2)CC1	yes
COc1ccc(CNC(=O)CN2C(=O)NC(C)(c3cccc(Br)c3)C2=O)cc1 (stereo not given)	no
Cc1cccn2c(=O)c(/C=C3\SC(=S)NC3=O)c(NCCCN3CCOCC3)nc12	yes
Cc1ccc(CNC(=O)CCc2nnc3ccc(N4CCC5(CC4)OCCO5)nn23)cc1	no
COC(=O)CCNC(=O)Cn1cnc2sc3c(c2c1=O)CCCC3	no
CN(C)CCCn1c(SCC(=O)Nc2nc(-c3cccc(Br)c3)cs2)nc2ccccc2c1=O	no
